Recorded values, source ChEMBL document CHEMBL2086345.

# systemTested: Metabotropic glutamate receptor 5 (Rattus norvegicus, UniProt P31424)
# Sequence (P31424 whole entry): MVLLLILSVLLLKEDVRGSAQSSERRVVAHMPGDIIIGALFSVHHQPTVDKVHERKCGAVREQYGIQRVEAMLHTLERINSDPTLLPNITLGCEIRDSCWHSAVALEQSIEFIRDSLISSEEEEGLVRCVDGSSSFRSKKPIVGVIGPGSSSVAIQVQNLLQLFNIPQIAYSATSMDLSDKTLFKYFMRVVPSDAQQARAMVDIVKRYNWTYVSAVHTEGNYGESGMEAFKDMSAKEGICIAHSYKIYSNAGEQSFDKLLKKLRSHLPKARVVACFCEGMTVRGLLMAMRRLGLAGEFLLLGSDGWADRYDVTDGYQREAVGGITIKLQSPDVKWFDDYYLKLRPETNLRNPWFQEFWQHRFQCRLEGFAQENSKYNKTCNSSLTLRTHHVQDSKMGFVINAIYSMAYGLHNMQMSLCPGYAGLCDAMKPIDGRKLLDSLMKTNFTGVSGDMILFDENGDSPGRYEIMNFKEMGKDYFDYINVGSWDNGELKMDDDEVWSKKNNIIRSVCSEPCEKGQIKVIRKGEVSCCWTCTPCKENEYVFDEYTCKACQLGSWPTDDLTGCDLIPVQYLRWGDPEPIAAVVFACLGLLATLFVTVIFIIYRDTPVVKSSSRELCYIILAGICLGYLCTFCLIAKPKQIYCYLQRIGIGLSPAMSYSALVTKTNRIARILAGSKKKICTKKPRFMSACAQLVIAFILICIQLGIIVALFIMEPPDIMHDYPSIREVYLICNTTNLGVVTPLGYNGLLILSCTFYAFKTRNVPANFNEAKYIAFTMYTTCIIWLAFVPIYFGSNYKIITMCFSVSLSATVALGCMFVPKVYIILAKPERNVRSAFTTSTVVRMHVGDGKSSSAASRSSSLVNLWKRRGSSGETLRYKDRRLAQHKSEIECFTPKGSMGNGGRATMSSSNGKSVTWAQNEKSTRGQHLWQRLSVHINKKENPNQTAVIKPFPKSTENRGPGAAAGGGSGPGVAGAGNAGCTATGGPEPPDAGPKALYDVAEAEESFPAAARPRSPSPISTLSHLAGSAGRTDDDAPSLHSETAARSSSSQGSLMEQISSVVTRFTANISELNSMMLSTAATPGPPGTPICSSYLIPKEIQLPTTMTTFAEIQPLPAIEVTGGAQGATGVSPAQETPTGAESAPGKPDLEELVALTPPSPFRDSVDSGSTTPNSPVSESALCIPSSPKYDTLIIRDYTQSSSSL
# testDescription: Inverse agonist activity at rat mGluR5 expressed in HEK293A cells coexpressing Gqalpha assessed as inhibition of basal D-myo-inositol 1 production by ELISA
pIC50: −log10 of the molar value.
pIC50 values for the compounds below.
reportedMetric: pIC50

>>> result("N#Cc1cc(F)cc(C#Cc2cccc(CO)n2)c1")
7.30
>>> result("Cc1cccc(C#Cc2cccc(C#N)c2)n1")
7.89
>>> result("N#Cc1cccc(C#Cc2cccc(CO)n2)c1")
7.52
>>> result("N#Cc1cccc(C#Cc2cccc(F)n2)c1")
6.68
>>> result("COc1cccc(C#Cc2cncc(C#N)c2)n1")
6.70
>>> result("N#Cc1cccc(C#Cc2cccc(C#N)n2)c1")
7.70
>>> result("N#Cc1cncc(C#Cc2cccc(C#N)n2)c1")
6.30
>>> result("Cc1cccc(C#Cc2cc(F)cc(C#N)c2)n1")
8.62
>>> result("COc1cccc(C#Cc2cccc(C#N)c2)n1")
6.52
>>> result("COc1cc(C#N)cc(C#Cc2cccc(C)n2)c1")
8.47
>>> result("N#Cc1cc(F)cc(C#Cc2cccc(F)n2)c1")
7.10
>>> result("CC(=O)c1cccc(C#Cc2cccc(C#N)c2)n1")
6.52
>>> result("CCCCc1cccc(C#Cc2cccc(C#N)c2)n1")
6.15
>>> result("COc1cccc(C#Cc2cc(F)cc(C#N)c2)n1")
6.40
>>> result("CC(=O)c1cccc(C#Cc2cc(F)cc(C#N)c2)n1")
6.62
>>> result("CCc1cccc(C#Cc2cccc(C#N)c2)n1")
7.10
>>> result("N#Cc1cc(F)cc(C#Cc2cccc(C#N)n2)c1")
8.05
